Task for the reader: assign each of the following molecules its reported CC50.
- Tested on: Vero cells
- procedureSummary: Cytotoxicity (CC50) by MTT method in Vero cells
- Type: cell-based
- experimentalConditions: compounds; MTT
Answers are plain numbers, in µM.

molecule	targetOfAssay	CC50 / µM
CC(=O)O[C@H]1[C@H]2c3cc4c(cc3CN3CCC(=C[C@@H]1O)[C@H]23)OCO4	Vero cells	19.8

Continue with the next molecule.
Incoming: Provide value of CC50 for this record tested with Vero cells: O=C1NC2C(=C[C@H](O)[C@@H](O)[C@H]2OC2OCC(O)C(O)C2O)c2cc3c(c(O)c21)OCO3 (stereo partly drawn) [Narciclasine-4-O-β-D-xylopyranoside, narciclasine-4-O-β-D-xylopyranoside]
Outgoing: 51.8

----------
- Tested on: BHK-21 cells
- procedureSummary: Cytotoxicity (CC50) by MTT method in BHK-21 cells
- Type: cell-based, Hamster
- experimentalConditions: compounds; MTT
readout: CC50 (µM)
Give bare numbers, in µM.

compound	reportedMeasurement
O=C1NC2C(=C[C@H](O)[C@@H](O)[C@H]2OC2OCC(O)C(O)C2O)c2cc3c(c(O)c21)OCO3 (stereo partly drawn) [Narciclasine-4-O-β-D-xylopyranoside, narciclasine-4-O-β-D-xylopyranoside]	39.3

Incoming: API: value(readout=CC50, system=BHK-21 cells) for record `CC(=O)O[C@H]1[C@H]2c3cc4c(cc3CN3CCC(=C[C@@H]1O)[C@H]23)OCO4`
Outgoing: 7.8

----------
- procedureSummary: Cytotoxicity (CC50) by MTT method in BHK-21 cells
- Format: cell-based, Hamster
- experimentalConditions: hamster; compounds; MTT
readout: CC50
In your response, the unit should come after the numeric value.

Incoming: For the molecule `O[C@H]1[C@H]2c3cc4c(cc3CN3CCC(=C[C@@H]1O)[C@H]23)OCO4` , what CC50 is on record?
Outgoing: 4.3 µM

----------
- System: ZIKV
- procedureSummary: Virucidal activity by plaque reduction assay, ZIKV in Vero cells
- Assay type: cell-based, Zika virus
- experimentalConditions: compounds
readout: ZIKV Virucidal activity

# example entries with known answers
molecule	ZIKV Virucidal activity
O=C1N[C@@H]2C(=C[C@H](O)[C@@H](O)[C@H]2O)c2cc3c(c(O)c21)OCO3	No
O=C1NC2C(=C[C@H](O)[C@@H](O)[C@H]2OC2OCC(O)C(O)C2O)c2cc3c(c(O)c21)OCO3 (stereo partly drawn) [Narciclasine-4-O-β-D-xylopyranoside, narciclasine-4-O-β-D-xylopyranoside]	No
CO[C@@H]1C=C[C@@]23c4cc5c(cc4C(O)O[C@H]2CN(C)[C@H]3C1)OCO5 (stereo partly drawn)	No
CC(=O)O[C@H]1[C@H]2c3cc4c(cc3CN3CCC(=C[C@@H]1OC(C)=O)[C@H]23)OCO4	No
CC(=O)O[C@H]1[C@H]2c3cc4c(cc3CN3CCC(=C[C@@H]1O)[C@H]23)OCO4	No

Okay, next one:
Incoming: Return reported ZIKV Virucidal activity; argument: `O[C@H]1[C@H]2c3cc4c(cc3CN3CCC(=C[C@@H]1O)[C@H]23)OCO4`
Outgoing: No

----------
- procedureSummary: Cytotoxicity (CC50) by MTT method in BHK-21 cells
- Assay type: cell-based, Hamster
- experimentalConditions: hamster, BHK-21 cell monolayers; compounds; MTT
readout: CC50 (µM)
One number for each entry, in µM.

Incoming: So what's the measured CC50 for this one? CO[C@@H]1C=C[C@@]23c4cc5c(cc4C(O)O[C@H]2CN(C)[C@H]3C1)OCO5 (stereo partly shown) [Pretazettine]
Outgoing: 5.4

Source: paper PMC8861615
